Reported pKi values follow for various compounds
- TEST_SYSTEM: Prostaglandin E2 receptor EP4 subtype (Homo sapiens)
- Sequence (P35408 whole entry): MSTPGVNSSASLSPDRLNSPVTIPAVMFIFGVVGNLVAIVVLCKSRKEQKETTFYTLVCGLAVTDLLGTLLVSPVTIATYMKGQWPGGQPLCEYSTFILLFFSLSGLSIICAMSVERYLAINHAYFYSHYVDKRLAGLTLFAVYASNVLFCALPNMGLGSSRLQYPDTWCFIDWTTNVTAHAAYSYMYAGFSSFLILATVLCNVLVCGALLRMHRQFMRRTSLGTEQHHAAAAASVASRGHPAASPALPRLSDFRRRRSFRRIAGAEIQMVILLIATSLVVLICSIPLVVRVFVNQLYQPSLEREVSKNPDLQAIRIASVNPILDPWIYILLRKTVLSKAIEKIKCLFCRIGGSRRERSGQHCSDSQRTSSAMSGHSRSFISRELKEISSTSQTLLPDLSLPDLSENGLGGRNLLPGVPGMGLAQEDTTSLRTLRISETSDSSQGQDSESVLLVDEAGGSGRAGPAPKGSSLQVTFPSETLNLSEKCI
- ASSAY_SUMMARY: Displacement of [3H]PGE2 from human prostanoid EP4 receptor expressed in HEK293-EBNA cells after 60 mins by scintillation counting
- Type: cell-based
pKi: −log10 of the molar value.

>  <COMPOUND_STRING>
C[C@H](NC(=O)c1cccc2ccn(Cc3ccc(C(F)(F)F)cc3)c12)c1ccc(C(=O)O)cc1

>  <TEST_SYSTEM>
Prostaglandin E2 receptor EP4 subtype (Homo sapiens)

>  <pKi>
9.21

$$$$
>  <COMPOUND_STRING>
C[C@H](NC(=O)c1cc(F)cc2ccn(Cc3cccc(Cl)c3)c12)c1ccc(C(=O)O)cc1

>  <TEST_SYSTEM>
Prostaglandin E2 receptor EP4 subtype (Homo sapiens)

>  <pKi>
8.62

$$$$
>  <COMPOUND_STRING>
C[C@H](NC(=O)c1cccc2ccn(Cc3cccc(Cl)c3)c12)c1ccc(C(=O)O)cc1

>  <TEST_SYSTEM>
Prostaglandin E2 receptor EP4 subtype (Homo sapiens)

>  <pKi>
8.57

$$$$
>  <COMPOUND_STRING>
O=C(O)c1ccc(C2(NC(=O)c3cccc4ccn(Cc5ccc(C(F)(F)F)cc5)c34)CC2)cc1

>  <TEST_SYSTEM>
Prostaglandin E2 receptor EP4 subtype (Homo sapiens)

>  <pKi>
9.64

$$$$
>  <COMPOUND_STRING>
C[C@H](NC(=O)c1cccc2ccn(Cc3cc(Cl)cc(OC(F)(F)F)c3)c12)c1ccc(C(=O)O)cc1

>  <TEST_SYSTEM>
Prostaglandin E2 receptor EP4 subtype (Homo sapiens)

>  <pKi>
9.42

$$$$
>  <COMPOUND_STRING>
O=C(O)c1ccc(C2(NC(=O)c3cc(Cl)cc4ccn(Cc5ccc(C(F)(F)F)cc5)c34)CC2)cc1

>  <TEST_SYSTEM>
Prostaglandin E2 receptor EP4 subtype (Homo sapiens)

>  <pKi>
9.51

$$$$
>  <COMPOUND_STRING>
C[C@H](NC(=O)c1cc(Cl)cc2ccn(Cc3ccc(C(F)(F)F)cc3)c12)c1ccc(C(=O)O)cc1

>  <TEST_SYSTEM>
Prostaglandin E2 receptor EP4 subtype (Homo sapiens)

>  <pKi>
9.36

$$$$
>  <COMPOUND_STRING>
Cc1cc2cccc(C(=O)N[C@@H](C)c3ccc(C(=O)O)cc3)c2n1Cc1cccc(Cl)c1

>  <TEST_SYSTEM>
Prostaglandin E2 receptor EP4 subtype (Homo sapiens)

>  <pKi>
7.25

$$$$
